Biological target: 11-beta-hydroxysteroid dehydrogenase 1 (Homo sapiens, UniProt P28845)
Sequence (P28845 whole entry): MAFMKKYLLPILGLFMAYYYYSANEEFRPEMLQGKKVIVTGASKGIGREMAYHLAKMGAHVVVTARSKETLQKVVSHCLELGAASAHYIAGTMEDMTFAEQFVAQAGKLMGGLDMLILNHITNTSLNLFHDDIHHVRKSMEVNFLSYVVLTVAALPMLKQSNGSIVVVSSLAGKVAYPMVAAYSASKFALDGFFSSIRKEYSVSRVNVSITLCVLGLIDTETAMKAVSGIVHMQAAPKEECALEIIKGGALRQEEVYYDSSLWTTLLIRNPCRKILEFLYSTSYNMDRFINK
pIC50: −log10 of the molar value.
Binary call on pIC50: 1 (yes) from 7 upward, 0 (no) beneath that.

Exercise: Is pIC50 for "O=C(Nc1ccc(C(=O)N2CCC[C@H]3CCCC[C@@H]32)cc1)c1ccccc1Cl" at or above 7?
Solution: 0 (no)

###

Biological target: 11-beta-hydroxysteroid dehydrogenase 1 (Homo sapiens, UniProt P28845)
Each record is given TRUE if its reported IC50 is strictly below 50 nM. Records at or above 50 nM are given FALSE.

Consider the worked cases shown below.
O=C(Cc1ccccc1)Nc1ccc(C(=O)N2CCC[C@H]3CCCC[C@@H]32)cc1    FALSE
O=C(c1ccc(C(=O)N2CCC[C@H]3CCCC[C@@H]32)cc1)N1CCCc2ccccc21    FALSE

Exercise: Threshold test, IC50 < 50 nM: "CC(C)(C(=O)N[C@H]1C2CC3CC1C[C@](C(N)=O)(C3)C2)c1ccc(N2CCOCC2)nc1"
Solution: TRUE

Exercise: Threshold test, IC50 < 50 nM: "O=C(Nc1ccc(C(=O)N2CCC[C@H]3CCCC[C@@H]32)cc1)c1ccc(Cl)cc1"
Solution: FALSE

Exercise: Threshold test, IC50 < 50 nM: "CCCc1nnc(C23CC4CC(CC(C4)C2)C3)n1CC"
Solution: FALSE

Exercise: Threshold test, IC50 < 50 nM: "CC(C)(Oc1ccc(Cl)cc1)C(=O)N[C@H]1C2CCCC1C[C@H](C(N)=O)C2"
Solution: TRUE

Exercise: Threshold test, IC50 < 50 nM: "O=C(Nc1cccc(C(=O)N2CCC[C@H]3CCCC[C@@H]32)c1)c1ccccc1"
Solution: TRUE
